Assay: Cocrystal screening by slurry method (Comparative Examples 1-1 to 1-6), powder X-ray diffraction
Type: physicochemical
Design: key: A cocrystal was completely formed.; B: A mixture of a cocrystal and the host compound or guest compound was formed.; C: A cocrystal was not formed (a mixture of the host compound and the guest compound was formed)
Settings: host theophylline, slurry in ethanol, room temperature 7 days
VALUE KIND: Cocrystal formation, Comparative Example 1-2

Below, 5 compounds whose answers are already recorded.
INSERT INTO results (compound, value_reported) VALUES
  ('O=C(O)C(=O)O [Oxalic acid]', 'C'),
  ('C/C=C/C=C/C(=O)O [Sorbic acid]', 'C'),
  ('CC(C)C[C@H](N)C(=O)O [L-Leucine]', 'C'),
  ('NCC(=O)O [Glycine]', 'C'),
  ('O=C(O)CC(O)(CC(=O)O)C(=O)O [Citric acid]', 'C');

# evaluate next
Reported Cocrystal formation, Comparative Example 1-2 ( N=C(N)NCCC[C@H](N)C(=O)O [L(+)-Arginine] ) = C

* * *

Assay: Cocrystal screening by slurry method (Comparative Examples 4-1 to 4-6), powder X-ray diffraction
Format: physicochemical
Design: key: A cocrystal was completely formed.; B: A mixture of a cocrystal and the host compound or guest compound was formed.; C: A cocrystal was not formed (a mixture of the host compound and the guest compound was formed)
Settings: host carbamazepine, slurry in ethyl acetate, room temperature 7 days
VALUE KIND: Cocrystal formation, Comparative Example 4-5

Below, 5 molecules whose answers are already recorded.
INSERT INTO measurements (molecule, value_reported) VALUES
  ('CC(C)C[C@H](N)C(=O)O', 'C'),
  ('NCC(=O)O', 'C'),
  ('O=C(O)c1ccccc1', 'C'),
  ('NC(=O)c1ccccc1 [Benzamide]', 'A'),
  ('O=C(O)CC(=O)O', 'A');

Reported Cocrystal formation, Comparative Example 4-5 ( "C/C=C/C=C/C(=O)O" ) = C

Reported Cocrystal formation, Comparative Example 4-5 ( NC(=O)c1cccnc1 [Nicotinamide] ) = A

* * *

Test: Cocrystal screening by slurry method (Comparative Examples 4-1 to 4-6), powder X-ray diffraction
Format: physicochemical
Set-up: key: A cocrystal was completely formed.; B: A mixture of a cocrystal and the host compound or guest compound was formed.; C: A cocrystal was not formed (a mixture of the host compound and the guest compound was formed)
Conditions: host carbamazepine, slurry in ethyl acetate, room temperature 7 days
VALUE KIND: Cocrystal formation, Comparative Example 4-5

Below, 5 compounds whose answers are already recorded.
INSERT INTO results (compound, value_reported) VALUES
  ('O=C(O)C(=O)O [Oxalic acid]', 'A'),
  ('N=C(N)NCCC[C@H](N)C(=O)O [L(+)-Arginine]', 'C'),
  ('O=S(=O)(O)CCS(=O)(=O)O [Ethanedisulfonic acid]', 'A'),
  ('O=C(O)CCCC(=O)O [Glutaric acid]', 'C'),
  ('O=C1NS(=O)(=O)c2ccccc21 [Saccharin]', 'A');

Reported Cocrystal formation, Comparative Example 4-5 ( O=C(O)/C=C\C(=O)O [Maleic acid] ) = A

* * *

Assay: Cocrystal screening by slurry method (Comparative Examples 1-1 to 1-6), powder X-ray diffraction
Type: physicochemical
Design: key: A cocrystal was completely formed.; B: A mixture of a cocrystal and the host compound or guest compound was formed.; C: A cocrystal was not formed (a mixture of the host compound and the guest compound was formed)
Conditions: host theophylline, slurry in ethyl acetate, room temperature 7 days
VALUE KIND: Cocrystal formation, Comparative Example 1-5

INSERT INTO results (molecule, value_reported) VALUES
  ('O=C(O)CC(O)(CC(=O)O)C(=O)O [Citric acid]', 'A'),
  ('O=C(O)c1ccccc1 [Benzoic acid]', 'C'),
  ('O=C(O)CCCC(=O)O [Glutaric acid]', 'C'),
  ('O=C(O)C(=O)O [Oxalic acid]', 'A');

Reported Cocrystal formation, Comparative Example 1-5 ( NC(=O)c1cccnc1 [Nicotinamide] ) = A

Reported Cocrystal formation, Comparative Example 1-5 ( NCC(=O)O [Glycine] ) = C

Reported Cocrystal formation, Comparative Example 1-5 ( O=C1NS(=O)(=O)c2ccccc21 [Saccharin] ) = A

The measurements presented in this section are drawn from patent US20140045824A1.
